Tested on: CP250
Assay: qHTS profiling for inhibitors of Plasmodium falciparum proliferation (AID 504749); further: nearly all actives have a fitted effect of over 60% in size
Conditions: P. falciparum in erythrocytes, SYBR Green DNA, 72 h; series mostly up to 12.8 µM
Records with an inconclusive call do not appear. The source made the active and inactive calls. The call rests on the fitted dose curve; in most records, active means well fitted inhibition curve with a large enough effect; inconclusive means small, poorly fitted or top-dose-only effect; inactive means flat fitted curve, though single readings scatter.
Outcome codes: Y (active), N (inactive)

- O=C(N/N=C\c1ccc([N+](=O)[O-])o1)c1ccc(O)cc1: Y
- O=C(O)[C@@H]1CCCN1: N
- C[C@H]1CC[C@]2(OC1)O[C@@H]1C[C@@H]3[C@@H]4CC[C@H]5C[C@@H](O)CC[C@]5(C)[C@@H]4CC(=O)[C@@]3(C)[C@H]1[C@@H]2C: N
- COc1cc2nc(N3CCN(C(=O)[C@@H]4COc5ccccc5O4)CC3)nc(N)c2cc1OC: N
- CC(=O)[C@]1(O)CCC2C3C=C(Cl)C4=CC(=O)C5CC5[C@@]4(C)C3CC[C@]21C (stereo not given in full): N
- C[C@]1(c2ccccc2)OC(C(=O)O)=CC1=O: N
- NS(=O)(=O)c1cc2c(cc1Cl)N[C@@H](C(Cl)Cl)NS2(=O)=O: N
- CCOC(=O)[C@H](CCc1ccccc1)N[C@@H](C)C(=O)N1[C@H](C(=O)O)C[C@H]2CCC[C@@H]21: N
- C[C@H](N[C@@H](C)COc1ccccc1)[C@H](O)c1ccc(O)cc1: N
- Cc1ccc2c(c1)c1c3n2CCN[C@H]3CCC1: N

====

Assay: NFAT Signaling Pathway (AID 444);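 further: carbachol stimulus at about its EC50 of 1 µM final; on the % scale 0 is the no-effect control and ±100 the full control effect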
Conditions: Jurkat NFAT-bla M1, carbachol, beta-lactamase ratio, 5 h; at 17.2 µM (top of the series) unless noted
Inconclusive results are not listed.
propertyName: activity change, negative = inhibition (%)

• CS(=O)(=O)c1ccc([C@H](O)[C@H](CO)NC(=O)C(Cl)Cl)cc1 = 1.44
• COc1c2c(nc3ccccc13)O[C@H]([C@@](C)(O)CO)C2 = -17.9
• O=C1OCCN1/N=C\c1ccc([N+](=O)[O-])o1 = -2.86
• O=C(N/N=C\c1ccc([N+](=O)[O-])o1)c1ccc(O)cc1 = 1.26
• NC(=O)c1ccc[n+]([C@@H]2O[C@H](COP(=O)([O-])OP(=O)(O)OC[C@H]3O[C@@H](n4cnc5c(N)ncnc54)[C@@H](O)[C@@H]3O)[C@@H](O)[C@@H]2O)c1 = 1.83
• Cc1ccccc1OC[C@H](O)CO = 11.2
• CC[C@H](CC[C@H](C)[C@@H]1CC[C@@H]2[C@H]3CC=C4C[C@@H](O)CC[C@]4(C)[C@H]3CC[C@]21C)C(C)C = -3.85
• CC[N+](CC)(CC)CC[C@](O)(c1ccccc1)C1CCCCC1 = -68.8
• COc1ccc([C@@H]2CC(=O)c3c(O)cc(O[C@H]4O[C@@H](CO[C@H]5O[C@@H](C)[C@@H](O)[C@@H](O)[C@@H]5O)[C@@H](O)[C@@H](O)[C@@H]4O)cc3O2)cc1O = 6.75
• C[C@@H]1[C@H](C)CC[C@@]2(C(=O)O[C@H]3O[C@@H](CO[C@H]4O[C@@H](CO)[C@@H](O[C@H]5O[C@@H](C)[C@@H](O)[C@@H](O)[C@@H]5O)[C@@H](O)[C@@H]4O)[C@@H](O)[C@@H](O)[C@@H]3O)CC[C@]3(C)C(=CC[C@H]4[C@@]5(C)C[C@@H](O)[C@@H](O)[C@](C)(CO)[C@@H]5CC[C@@]43C)[C@@H]12 = -1.63
• CCN1CCN(C(=O)N[C@H](C(=O)N[C@@H]2C(=O)N3[C@@H]2SC(C)(C)[C@@H]3C(=O)O)c2ccccc2)C(=O)C1=O = -2.87
• COC(=O)[C@@H]1[C@@H]2C[C@H]3c4[nH]c5cc(OC)ccc5c4CCN3C[C@@H]2C[C@H](OC(=O)c2cc(OC)c(OC)c(OC)c2)[C@H]1OC = -10.5
• O=C(O)[C@@H]1CCCNC1 = -10.3
• C[C@@H]1CCc2cc(F)cc3c(=O)c(C(=O)O)cn1c23 = 7.91
• CC(=O)O[C@H]1C[C@@]2(C)[C@H](C[C@@H](O)[C@H]3[C@@]4(C)CC[C@@H](O)[C@@H](C)[C@H]4CC[C@@]32C)C1=C(CCC=C(C)C)C(=O)O = -11.2
• Nc1c(O)cccc1C(=O)C[C@@H](N)C(=O)O = -7.19
